Assay: NCI Yeast Anticancer Drug Screen. Data for the rad50 strain (AID 155);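 further: 0% = growth of vehicle-only cultures of the same strain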
Settings: S. cerevisiae rad50 strain growth inhibition; at 50.0 µM; hits give high values
This is part of a sample that, as a whole, favours compounds with a hit. Of some 79,000 tested, about 15% had one in any assay.
Would you mind labelling by growth inhibition? At or over -10% is condition met, under is condition not met.

As a guide, the following entries are already answered.
{"columns": ["molecule", "category"],
 "data": [
  ["COc1cc(-c2ccccc2)c(OC)cc1CCl", "condition met"],
  ["COc1ccc(NC(=O)C2=C(SC)C(C#N)C(=O)N=C2N)cc1 (stereo not drawn)", "condition not met"],
  ["CC(=O)Nc1ccccc1NC1CC(C)N(c2ccccc2)N1C(C)=O (stereo not drawn)", "condition not met"],
  ["C[N+]([O-])(C/C=C/c1ccccc1)c1ccccc1 (stereo not drawn)", "condition met"]
]}

Quick check, growth inhibition >= -10%? O=C(NCc1ccccc1)C1CCN(Cc2c[nH]c3ccccc23)CC1
condition met

Quick check, growth inhibition >= -10%? CCOC(=O)CNC(=O)CCC(=O)OC
condition not met

Quick check, growth inhibition >= -10%? Clc1cc(Cl)c(SSc2cc(Cl)c(Cl)cc2Cl)cc1Cl
condition not met

Quick check, growth inhibition >= -10%? N#CCCCCCCC(N)=O
condition met

---

Assay: NCI Yeast Anticancer Drug Screen. Data for the cln2 rad14 strain (AID 165);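 further: 0% = growth equal to vehicle treated cultures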
Details: S. cerevisiae cln2 rad14 strain, at 50.0 µM
This is part of a sample that, as a whole, favours compounds with a hit. Of some 79,000 tested, about 15% had one in any assay. Calls of active or inactive are those of the source. Cut-off read from the data, not from the text of the source: active = growth inhibition above about 70%; inactive = the rest. Where a SMILES comes first, the peptide text is derived from it. [ ]: non-standard residue; d: D form. The star is where a group is joined. Phe(4-NO2) = N[CH](Cc1ccc([N+](=O)[O-])cc1)C(=O)O; Boc = CC(C)(C)OC(=O)*; OtBu = CC(C)(C)O*
Choose the fitting class; nothing outside active, inactive is accepted.

As a guide, the following entries are already answered.
{"columns": ["compound", "category"],
 "data": [
  ["O=C1OCC(c2ccccc2)(c2ccccc2)C(=O)N1O", "inactive"],
  ["O/N=C(/CC(O)(c1ccccc1)c1ccccc1)c1ccccc1", "inactive"]
]}

I would be grateful if you could indicate the recorded call for CC(=O)NC(CCC(=O)OC(C)(C)C)C(=O)NC(CCC(=O)OC(C)(C)C)C(=O)NC(Cc1ccc([N+](=O)[O-])cc1)C(=O)NC(CCCCNC(=O)OC(C)(C)C)C(=O)NC(CCCCNC(=O)OC(C)(C)C)C(=O)NCC(=O)O (centres undefined) (Ac-E(OtBu)E(OtBu)[Phe(4-NO2)]K(Boc)K(Boc)G-OH; configuration not given here) .
inactive

I would be grateful if you could indicate the recorded call for CN(C)CCNC(=O)c1cccc2c(Nc3ccc(S(N)(=O)=O)cc3)c3ccccc3nc12 .
inactive

---

Assay: NCI Yeast Anticancer Drug Screen. Data for the cln2 rad14 strain (AID 165);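 further: 0% = growth equal to vehicle treated cultures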
Conditions: S. cerevisiae cln2 rad14 strain, at 50.0 µM
Description: Growth inhibition of yeast strains with defined genetic alterations is measured as a screen for potential anti-cancer activity. Selected strains with alterations in DNA damage repair or cell cycle control were exposed to compounds and growth inhibition was measured relative to vehicle treated controls. The strain used in this assay is cln2 rad14
Compounds without any hit were thinned out: in the full panel of roughly 79,000, 15% have a hit. Activity calls are given as the source filed them. No stated cut-off is given here; in the data, active means growth inhibition above about 70%; inactive means the rest.
Choose the fitting class; nothing outside 1 (yes) = active, 0 (no) = inactive is accepted.

As a guide, the following entries are already answered.
{"columns": ["molecule", "category"],
 "data": [
  ["CCN(C)c1ccccc1", "0 (no)"],
  ["CCCOc1cc2c(cc1C(C)c1ccc(OCC)c(C)c1)OCO2 (stereo not given)", "0 (no)"],
  ["Nc1nn2c(nc(N)c3c(N)[nH]nc32)c1N=Nc1ccc(Br)cc1", "0 (no)"],
  ["CC1(C)SC(C)(C)C1=O", "0 (no)"],
  ["Cc1ccc(S(=O)(=O)N2CN3CN(C2)CN(S(=O)(=O)c2ccc(C)cc2)C3)cc1", "0 (no)"],
  ["CO/N=C1\\CC(NC(=O)C(F)(F)F)c2ccsc21 (stereo not given)", "0 (no)"],
  ["O=COCCCc1ccccc1", "0 (no)"],
  ["CC1=CC(=O)c2cccc(NC3=NCCO3)c21", "0 (no)"]
]}

I would be grateful if you could indicate the recorded call for Cc1cccc(C)c1/[N+]([O-])=C/c1cccc([N+](=O)[O-])c1 .
0 (no)

I would be grateful if you could indicate the recorded call for CC(=O)Nc1ccc(/C=N/Nc2ccccc2)cc1 .
1 (yes)

I would be grateful if you could indicate the recorded call for Cc1cn(C2CC3[O][Sn]([c]4ccccc4)([c]4ccccc4)[O]CC3O2)c(=O)[nH]c1=O (stereo not given) .
0 (no)

I would be grateful if you could indicate the recorded call for COC(=O)c1ccccc1N(C)C(=O)c1cc(OC)c(OC)c(OC)c1 .
0 (no)

I would be grateful if you could indicate the recorded call for CCOC(=O)C1=NN(c2ccccc2)C(=O)/C1=C\N1C(=O)/C(=C/c2cccc(OC)c2O)SC1=S .
0 (no)

I would be grateful if you could indicate the recorded call for CCOC(=O)N/N=C(\Cc1ccccc1)OCC .
0 (no)

I would be grateful if you could indicate the recorded call for CC(O)CCNC(c1ccccc1)C(O)c1ccccc1 (stereo not given) .
0 (no)

I would be grateful if you could indicate the recorded call for Cc1c(C(=O)CSc2nc3ccccc3c(=O)n2-c2ccccc2)c(=O)n(-c2ccccc2)n1C .
0 (no)

I would be grateful if you could indicate the recorded call for Cc1cc(C)c(S(=O)(=O)O)cc1N .
0 (no)

I would be grateful if you could indicate the recorded call for O=C1c2cc3c(cc2CC1Cc1ccc2c(c1)CCC2)CCC3 (stereo not given) .
0 (no)

I would be grateful if you could indicate the recorded call for COc1ccc(/C=C/c2cc(O)cc(OC3OC(CO)C(O)C(O)C3O)c2)cc1O (stereo not given) .
0 (no)

I would be grateful if you could indicate the recorded call for CCOC(=O)C(C(C)=O)C(NO)C(Cl)(Cl)Cl (stereo not given) .
0 (no)

---

Entries and their growth inhibition
Test: NCI Yeast Anticancer Drug Screen. Data for the rad50 strain (AID 155);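 further: 0% = growth of vehicle-only cultures of the same strain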
Conditions: S. cerevisiae rad50 strain growth inhibition; at 50.0 µM; hits give high values
The panel holds about 79,000 compounds, 15% with a hit somewhere; the sample as a whole holds those more often.
Provide the reading as a plain figure in %.

{"columns": ["compound", "measurement.label", "value.observed"],
 "data": [
  ["CCCc1nc(N)nc(C(=O)Nc2cccc(C(F)(F)F)c2)c1CC", "growth inhibition", -15.2],
  ["COc1ccc(C(CC(=O)c2ccccc2)C(=O)c2ccc3c(c2)OCO3)cc1 (stereo not given)", "growth inhibition", -40],
  ["O=S1C2CCC(Br)C1CCC2Br (stereo not given)", "growth inhibition", 7.95],
  ["CCOC(=O)C1OC1(C)c1ccc(Cl)cc1 (stereo not given)", "growth inhibition", 6.1],
  ["CC(=O)OCC1OC(n2cccnc2=O)C(OC(C)=O)C1OC(C)=O (stereo not given)", "growth inhibition", -0.55]
]}

Name the recorded growth inhibition for O=S(=O)(/N=c1/ccc(NS(=O)(=O)c2ccccc2)cn1O)c1ccccc1 .
25.5

Name the recorded growth inhibition for CS(=O)(=O)Oc1ccc2cc(Br)ccc2c1 .
13.6

---

Entries and their growth inhibition
Assay: NCI Yeast Anticancer Drug Screen. Data for the bub3 strain (AID 167)
Details: S. cerevisiae bub3 mutant strain, at 50.0 µM, hits give high values
About 79,000 compounds went through this panel and 15% of them were active in at least one assay; those are over-represented in the sample as a whole.
Provide the reading as a plain figure in %.

Some compounds with recorded growth inhibition:
{"columns": ["compound", "unit.symbol", "growth inhibition"],
 "data": [
  ["Cc1ccc(Cl)nn1", "%", 12.9],
  ["O=C(Nc1ccc2c(O)c(N=Nc3ccc(N=Nc4ccc(S(=O)(=O)O)cc4)cc3)c(S(=O)(=O)O)cc2c1)c1ccccc1", "%", 8.8],
  ["C/C1=C/C2=CC(C)C[C@@H]2C(=O)[C@]2(C)C(=O)CC(C)(C)[C@H]2CC1=O (stereo partly specified)", "%", -13.6],
  ["CCC(=O)NN(C(C)=O)c1ccccc1", "%", 8.8],
  ["Cc1cnc(N)s1", "%", -11.2]
]}

Then there is this compound:
Name the recorded growth inhibition for CCOc1ccc(N2C(C#N)c3ccccc3OC2c2ccccc2O)cc1 (stereo unspecified) .
32.5

---

Entries and their growth inhibition
Assay: NCI Yeast Anticancer Drug Screen. Data for the cln2 rad14 strain (AID 165);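 further: 0% = growth equal to vehicle treated cultures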
Conditions: S. cerevisiae cln2 rad14 strain, at 50.0 µM, hits give high values
This is part of a sample that, as a whole, favours compounds with a hit. Of some 79,000 tested, about 15% had one in any assay.
Provide the reading as a plain figure in %.

Name the recorded growth inhibition for CCC(C(=O)NC1c2ccccc2Oc2ccccc21)c1ccccc1 (centres undefined) .
-12.4

Name the recorded growth inhibition for C=CCCCC1CCCNC1=O (centres undefined) .
8.1

Name the recorded growth inhibition for O=C1C=CC[C@H](/C=C/c2ccccc2)O1 .
24.4

Name the recorded growth inhibition for COc1ccc(Cl)cc1NC(=O)Oc1cc2ccccc2cc1C(=O)Nc1ccccc1 .
-25.1

Data credit: PubChem BioAssay (NCI)
